# Test system: ACHN
# experiment: Growth inhibition of human ACHN cells at 10 uM after 48 hrs by sulforhodamine B assay
# Type: functional
# recorded-conditions: values are per cent of control
Reported values of growth, % of control at 10 µM for individual entries
quantity-name: growth, % of control at 10 µM (%)

[[record]]
entry_smiles = "[3H]N1C(=O)[C@@]2(c3ccccc31)N(C)C[C@@H](c1cccs1)[C@@]21Cc2ccccc2C1=O"
unit_spec = "%"
obs_value = 97.9

[[record]]
entry_smiles = "[3H]N1C(=O)[C@@]2(c3ccccc31)N(C)C[C@@H](c1ccc(Cl)cc1)[C@@]21Cc2ccccc2C1=O"
unit_spec = "%"
obs_value = 80.5

[[record]]
entry_smiles = "[3H]N1C(=O)[C@@]2(c3ccccc31)N(C)C[C@@H](c1ccc(OC)cc1)[C@@]21Cc2ccccc2C1=O"
unit_spec = "%"
obs_value = 98.1

[[record]]
entry_smiles = "[3H]C([3H])([3H])N1C(=O)[C@@]2(c3ccccc31)N(C)C[C@@H](c1cccs1)[C@@]21Cc2ccccc2C1=O"
unit_spec = "%"
obs_value = 98.4

[[record]]
entry_smiles = "[3H]C([3H])([3H])N1C(=O)[C@@]2(c3ccccc31)N(C)C[C@@H](c1ccc(OC)cc1)[C@@]21Cc2ccccc2C1=O"
unit_spec = "%"
obs_value = 82.8

[[record]]
entry_smiles = "[3H]C([3H])([3H])N1C(=O)[C@@]2(c3ccccc31)N(C)C[C@@H](c1ccc(Cl)cc1)[C@@]21Cc2ccccc2C1=O"
unit_spec = "%"
obs_value = 82.8


---

# Test system: MDA-MB-231
# experiment: Growth inhibition of human MDA-MB-231 cells at 10 uM after 48 hrs by sulforhodamine B assay
# Assay type: functional
# recorded-conditions: MDA-MB-231, 48 h, values are per cent of control
Reported values of growth, % of control at 10 µM for individual entries
quantity-name: growth, % of control at 10 µM (%)

[[record]]
entry_smiles = "[3H]C([3H])([3H])N1C(=O)[C@@]2(c3ccccc31)N(C)C[C@@H](c1cccs1)[C@@]21Cc2ccccc2C1=O"
obs_value = 84.3

[[record]]
entry_smiles = "[3H]C([3H])([3H])N1C(=O)[C@@]2(c3ccccc31)N(C)C[C@@H](c1ccc(Cl)cc1)[C@@]21Cc2ccccc2C1=O"
obs_value = 79.3

[[record]]
entry_smiles = "[3H]C([3H])([3H])N1C(=O)[C@@]2(c3ccccc31)N(C)C[C@@H](c1ccc(OC)cc1)[C@@]21Cc2ccccc2C1=O"
obs_value = 94.3

[[record]]
entry_smiles = "[3H]N1C(=O)[C@@]2(c3ccccc31)N(C)C[C@@H](c1ccc(OC)cc1)[C@@]21Cc2ccccc2C1=O"
obs_value = 74.4

[[record]]
entry_smiles = "[3H]N1C(=O)[C@@]2(c3ccccc31)N(C)C[C@@H](c1ccc(Cl)cc1)[C@@]21Cc2ccccc2C1=O"
obs_value = 75.1

[[record]]
entry_smiles = "[3H]N1C(=O)[C@@]2(c3ccccc31)N(C)C[C@@H](c1cccs1)[C@@]21Cc2ccccc2C1=O"
obs_value = 78.3


---

# System: SF-268
# experiment: Growth inhibition of human SF268 cells at 10 uM after 48 hrs by sulforhodamine B assay
# Type: functional
# recorded-conditions: SF-268, 48 h, values are per cent of control
quantity-name: growth, % of control at 10 µM (%)

[[record]]
entry_smiles = "[3H]C([3H])([3H])N1C(=O)[C@@]2(c3ccccc31)N(C)C[C@@H](c1ccc(Cl)cc1)[C@@]21Cc2ccccc2C1=O"
quantity_name = "growth, % of control at 10 µM"
unit_spec = "%"
obs_value = 81.1

[[record]]
entry_smiles = "[3H]N1C(=O)[C@@]2(c3ccccc31)N(C)C[C@@H](c1cccs1)[C@@]21Cc2ccccc2C1=O"
quantity_name = "growth, % of control at 10 µM"
unit_spec = "%"
obs_value = 93.6

[[record]]
entry_smiles = "[3H]N1C(=O)[C@@]2(c3ccccc31)N(C)C[C@@H](c1ccc(OC)cc1)[C@@]21Cc2ccccc2C1=O"
quantity_name = "growth, % of control at 10 µM"
unit_spec = "%"
obs_value = 113

[[record]]
entry_smiles = "[3H]N1C(=O)[C@@]2(c3ccccc31)N(C)C[C@@H](c1ccc(Cl)cc1)[C@@]21Cc2ccccc2C1=O"
quantity_name = "growth, % of control at 10 µM"
unit_spec = "%"
obs_value = 90

[[record]]
entry_smiles = "[3H]C([3H])([3H])N1C(=O)[C@@]2(c3ccccc31)N(C)C[C@@H](c1cccs1)[C@@]21Cc2ccccc2C1=O"
quantity_name = "growth, % of control at 10 µM"
unit_spec = "%"
obs_value = 101

[[record]]
entry_smiles = "[3H]C([3H])([3H])N1C(=O)[C@@]2(c3ccccc31)N(C)C[C@@H](c1ccc(OC)cc1)[C@@]21Cc2ccccc2C1=O"
quantity_name = "growth, % of control at 10 µM"
unit_spec = "%"
obs_value = 108


---

# Tested on: Rattus norvegicus
# experiment: Antiinflammatory activity against carrageenan-induced paw edema in Wister albino rat assessed as inhibition of edema at 50 mg/kg, ip administered 1 hr prior to carrageenan challenge measured after 2 hrs relative to control
# Format: functional
# recorded-conditions: route intraperitoneal
Rule: met for inhibition in vivo at 50 mg/kg not less than 30%, not met for anything less.

[[record]]
entry_smiles = "[3H]C([3H])([3H])N1C(=O)[C@@]2(c3ccccc31)N(C)C[C@@H](c1ccc(Cl)cc1)[C@@]21Cc2ccccc2C1=O"
answer_label = "met"

[[record]]
entry_smiles = "[3H]N1C(=O)[C@@]2(c3ccccc31)N(C)C[C@@H](c1ccccc1)[C@@]21Cc2ccccc2C1=O"
answer_label = "met"

[[record]]
entry_smiles = "[3H]N1C(=O)[C@@]2(c3ccccc31)N(C)C[C@@H](c1ccc(F)cc1)[C@@]21Cc2ccccc2C1=O"
answer_label = "not met"

[[record]]
entry_smiles = "[3H]N1C(=O)[C@@]2(c3ccccc31)N(C)C[C@@H](c1ccc(C)cc1)[C@@]21Cc2ccccc2C1=O"
answer_label = "not met"

[[record]]
entry_smiles = "[3H]C([3H])([3H])N1C(=O)[C@@]2(c3ccccc31)N(C)C[C@@H](c1ccco1)[C@@]21Cc2ccccc2C1=O"
answer_label = "met"

[[record]]
entry_smiles = "[3H]C([3H])([3H])N1C(=O)[C@@]2(c3ccccc31)N(C)C[C@@H](c1cccs1)[C@@]21Cc2ccccc2C1=O"
answer_label = "not met"


---

# System: TK-10
# experiment: Growth inhibition of human TK10 cells at 10 uM after 48 hrs by sulforhodamine B assay; values are per cent of control
# recorded-conditions: TK-10, 48 h
quantity-name: growth, % of control at 10 µM (%)

[[record]]
entry_smiles = "[3H]C([3H])([3H])N1C(=O)[C@@]2(c3ccccc31)N(C)C[C@@H](c1ccc(OC)cc1)[C@@]21Cc2ccccc2C1=O"
unit_spec = "%"
obs_value = 165

[[record]]
entry_smiles = "[3H]N1C(=O)[C@@]2(c3ccccc31)N(C)C[C@@H](c1ccc(OC)cc1)[C@@]21Cc2ccccc2C1=O"
unit_spec = "%"
obs_value = 176

[[record]]
entry_smiles = "[3H]C([3H])([3H])N1C(=O)[C@@]2(c3ccccc31)N(C)C[C@@H](c1ccc(Cl)cc1)[C@@]21Cc2ccccc2C1=O"
unit_spec = "%"
obs_value = 140

[[record]]
entry_smiles = "[3H]N1C(=O)[C@@]2(c3ccccc31)N(C)C[C@@H](c1cccs1)[C@@]21Cc2ccccc2C1=O"
unit_spec = "%"
obs_value = 144

[[record]]
entry_smiles = "[3H]N1C(=O)[C@@]2(c3ccccc31)N(C)C[C@@H](c1ccc(Cl)cc1)[C@@]21Cc2ccccc2C1=O"
unit_spec = "%"
obs_value = 144

[[record]]
entry_smiles = "[3H]C([3H])([3H])N1C(=O)[C@@]2(c3ccccc31)N(C)C[C@@H](c1cccs1)[C@@]21Cc2ccccc2C1=O"
unit_spec = "%"
obs_value = 149


---

# System: OVCAR-3
# experiment: Growth inhibition of human OVCAR-3 cells at 10 uM after 48 hrs by sulforhodamine B assay
# Format: functional
# recorded-conditions: OVCAR-3, 48 h, values are per cent of control
Reported values of growth, % of control at 10 µM for individual entries
quantity-name: growth, % of control at 10 µM (%)

[[record]]
entry_smiles = "[3H]N1C(=O)[C@@]2(c3ccccc31)N(C)C[C@@H](c1ccc(OC)cc1)[C@@]21Cc2ccccc2C1=O"
quantity_name = "growth, % of control at 10 µM"
obs_value = 98.5

[[record]]
entry_smiles = "[3H]C([3H])([3H])N1C(=O)[C@@]2(c3ccccc31)N(C)C[C@@H](c1cccs1)[C@@]21Cc2ccccc2C1=O"
quantity_name = "growth, % of control at 10 µM"
obs_value = 100

[[record]]
entry_smiles = "[3H]C([3H])([3H])N1C(=O)[C@@]2(c3ccccc31)N(C)C[C@@H](c1ccc(OC)cc1)[C@@]21Cc2ccccc2C1=O"
quantity_name = "growth, % of control at 10 µM"
obs_value = 92.5

[[record]]
entry_smiles = "[3H]C([3H])([3H])N1C(=O)[C@@]2(c3ccccc31)N(C)C[C@@H](c1ccc(Cl)cc1)[C@@]21Cc2ccccc2C1=O"
quantity_name = "growth, % of control at 10 µM"
obs_value = 69.3

[[record]]
entry_smiles = "[3H]N1C(=O)[C@@]2(c3ccccc31)N(C)C[C@@H](c1ccc(Cl)cc1)[C@@]21Cc2ccccc2C1=O"
quantity_name = "growth, % of control at 10 µM"
obs_value = 78.6

[[record]]
entry_smiles = "[3H]N1C(=O)[C@@]2(c3ccccc31)N(C)C[C@@H](c1cccs1)[C@@]21Cc2ccccc2C1=O"
quantity_name = "growth, % of control at 10 µM"
obs_value = 95.6


All figures here come from ChEMBL document CHEMBL1152855.
